Exercise: state measured inhibition at 10 µM for each of the molecules provided.
- ASSAY_SYSTEM: hA2BAR (Homo sapiens, UniProt P29275)
- Construct: host or cells: HEK-293-A2B cells (membranes)
- Sequence (P29275 1-332): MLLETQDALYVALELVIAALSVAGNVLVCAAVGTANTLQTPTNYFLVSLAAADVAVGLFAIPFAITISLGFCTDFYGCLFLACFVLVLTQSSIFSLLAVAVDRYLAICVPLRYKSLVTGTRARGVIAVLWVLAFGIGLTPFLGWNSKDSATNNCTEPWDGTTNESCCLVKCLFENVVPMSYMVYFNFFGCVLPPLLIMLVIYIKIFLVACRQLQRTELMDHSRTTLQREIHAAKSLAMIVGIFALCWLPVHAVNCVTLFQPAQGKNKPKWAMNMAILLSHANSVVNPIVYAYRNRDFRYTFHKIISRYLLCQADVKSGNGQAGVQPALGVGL
- TEST_DETAILS: Radioligand competition binding assay at hA2BAR ([3H]DPCPX)
Express it in %; write the number only.

Entry CN(C)C(=O)[C@H]1[Se][C@@H](n2cnc3c(NCc4cccc(I)c4)nc(Cl)nc32)[C@H](O)[C@@H]1O ; inhibition at 10 µM = 23

Entry CN(C)C(=O)[C@H]1[Se][C@@H](n2cnc3c(N)ncnc32)[C@H](O)[C@@H]1O ; inhibition at 10 µM = 17

Entry CN(C)C(=O)[C@H]1[Se][C@@H](n2cnc3c(NCc4cccc(Cl)c4)ncnc32)[C@H](O)[C@@H]1O ; inhibition at 10 µM = 15

Entry CN(C)C(=O)[C@H]1[Se][C@@H](n2cnc3c(NCc4cccc(F)c4)ncnc32)[C@H](O)[C@@H]1O ; inhibition at 10 µM = 19

###

- ASSAY_SYSTEM: hA2BAR (Homo sapiens)
- Construct: host or cells: HEK-293-A2B cells (membranes)
- TEST_DETAILS: Radioligand competition binding assay at hA2BAR ([3H]DPCPX)
Exercise: state measured inhibition at 10 µM for each of the molecules provided.
Reply with a number, then the unit it belongs to.

Entry CNc1nc(Cl)nc2c1ncn2[C@@H]1[Se][C@H](C(=O)N(C)C)[C@@H](O)[C@H]1O [Compound 9h] ; inhibition at 10 µM = 19%

Entry CN(C)C(=O)[C@H]1[Se][C@@H](n2cnc3c(NCc4cccc(Br)c4)nc(Cl)nc32)[C@H](O)[C@@H]1O [Compound 9k] ; inhibition at 10 µM = 27%

Entry CN(C)C(=O)[C@H]1[Se][C@@H](n2cnc3c(NCc4cccc(F)c4)nc(Cl)nc32)[C@H](O)[C@@H]1O [Compound 9i] ; inhibition at 10 µM = 14%

Entry CN(C)C(=O)[C@H]1[Se][C@@H](n2cnc3c(N)nc(Cl)nc32)[C@H](O)[C@@H]1O [Compound 9g] ; inhibition at 10 µM = 25%

Entry CNc1ncnc2c1ncn2[C@@H]1[Se][C@H](C(=O)N(C)C)[C@@H](O)[C@H]1O [Compound 9b] ; inhibition at 10 µM = 9%

Entry CN(C)C(=O)[C@H]1[Se][C@@H](n2cnc3c(NCc4cccc(Cl)c4)nc(Cl)nc32)[C@H](O)[C@@H]1O [Compound 9j] ; inhibition at 10 µM = 27%

###

- ASSAY_SYSTEM: hA3AR (Homo sapiens, UniProt P0DMS8)
- Sequence (P0DMS8 whole entry): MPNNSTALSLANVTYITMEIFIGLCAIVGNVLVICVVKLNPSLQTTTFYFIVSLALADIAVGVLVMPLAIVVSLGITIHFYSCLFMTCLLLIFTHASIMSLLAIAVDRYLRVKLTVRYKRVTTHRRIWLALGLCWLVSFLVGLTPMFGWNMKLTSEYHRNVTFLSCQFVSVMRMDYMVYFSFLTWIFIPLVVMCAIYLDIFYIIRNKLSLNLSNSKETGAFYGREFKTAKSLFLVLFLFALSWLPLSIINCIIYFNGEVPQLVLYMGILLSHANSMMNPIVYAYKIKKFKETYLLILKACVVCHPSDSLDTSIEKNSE
- TEST_DETAILS: Radioligand competition binding assay at hA3AR ([3H]NECA)
- Design: expressed in transfected cells; host or cells: HeLa-A3 cell line (membranes prepared in laboratory)
- STATED_CONDITIONS: 0.5 nM [3H]NECA; mean ± SEM (n = 2); read-out: Affinity, Ki, hA3AR
just bin them by Ki: LOW = under 200 nM, MID = from 200 nM up to 1000 nM, HIGH = 1000 nM and over

q: Bin? CN(C)C(=O)[C@H]1[Se][C@@H](n2cnc3c(NCc4cccc(I)c4)nc(Cl)nc32)[C@H](O)[C@@H]1O
a: MID

q: Bin? CN(C)C(=O)[C@H]1[Se][C@@H](n2cnc3c(NCc4cccc(F)c4)nc(Cl)nc32)[C@H](O)[C@@H]1O
a: MID

q: Bin? CN(C)C(=O)[C@H]1[Se][C@@H](n2cnc3c(NCc4cccc(Br)c4)ncnc32)[C@H](O)[C@@H]1O
a: LOW

q: Bin? CN(C)C(=O)[C@H]1[Se][C@@H](n2cnc3c(N)ncnc32)[C@H](O)[C@@H]1O
a: HIGH

q: Bin? CN(C)C(=O)[C@H]1[Se][C@@H](n2cnc3c(NCc4cccc(I)c4)ncnc32)[C@H](O)[C@@H]1O
a: LOW

q: Bin? CN(C)C(=O)[C@H]1[Se][C@@H](n2cnc3c(N)nc(Cl)nc32)[C@H](O)[C@@H]1O
a: HIGH

q: Bin? CNc1ncnc2c1ncn2[C@@H]1[Se][C@H](C(=O)N(C)C)[C@@H](O)[C@H]1O
a: MID

q: Bin? CN(C)C(=O)[C@H]1[Se][C@@H](n2cnc3c(NCc4cccc(Cl)c4)ncnc32)[C@H](O)[C@@H]1O
a: HIGH

q: Bin? CNc1nc(Cl)nc2c1ncn2[C@@H]1[Se][C@H](C(=O)N(C)C)[C@@H](O)[C@H]1O
a: HIGH

q: Bin? CN(C)C(=O)[C@H]1[Se][C@@H](n2cnc3c(NCc4cccc(Br)c4)nc(Cl)nc32)[C@H](O)[C@@H]1O
a: LOW

q: Bin? CN(C)C(=O)[C@H]1[Se][C@@H](n2cnc3c(NCc4cccc(F)c4)ncnc32)[C@H](O)[C@@H]1O
a: HIGH

Data credit: paper PMC8071163
